Listed here: items and their measured pest or weed control at 100 ppm.
- Tested on: Leptosphaeria nodorum
- test-summary: Glume blotch of wheat (Leptosphaeria nodorum--LEPTNO)
- Assay type: in vivo
- condition-notes: Parastagonospora nodorum; wheat (cultivar Monon), 100 ppm spray to run off, inoculated after 24 hours, 1DP; read-out: control of plant disease, LEPTNO 1DP

query: What value of pest or weed control at 100 ppm has been reported for the following molecule? `CON=C(C(=O)OC)c1ccccc1COc1ncc(-c2noc(C(C)(C)C)n2)cc1Cl`
result: 75 to 100%

query: Now consider `CNC(=O)C(=NOC)c1ccccc1COc1ccc(-c2nc(C(F)(F)F)no2)cn1` and answer again.
result: 0 to 24%

query: Cool, now `CNC(=O)C(=NOC)c1ccccc1COc1ccc(-c2noc(COC)n2)cn1`
result: 25 to 74%

query: What do you have for `CNC(=O)C(=NOC)c1ccccc1COc1ccc(-c2noc(CSc3ccccc3)n2)cn1` ?
result: 75 to 100%

query: Param item: `CNC(=O)C(=NOC)c1ccccc1COc1ncc(-c2nc(C3CCCCC3)no2)cc1Cl`
result: 0 to 24%

query: Continue with `CNC(=O)C(=NOC)c1ccccc1COc1ncc(-c2noc(-c3ccccc3)n2)cc1Cl`
result: 75 to 100%

query: Then this molecule: `CNC(=O)C(=NOC)c1ccccc1COc1ccc(-c2nc(C3CCCCC3)no2)cn1`
result: 0 to 24%

query: Thanks! And `CCCc1noc(-c2cnc(OCc3ccccc3C(=NOC)C(=O)NC)c(Cl)c2)n1` ?
result: 75 to 100%

query: Repeat for the following molecule: `CNC(=O)C(=NOC)c1ccccc1COc1ncc(-c2nc(COc3ccccc3)no2)cc1Cl`
result: 25 to 74%
